Provenance of the data: patent US12220419B2

target: BCL-2 (Homo sapiens (Human), UniProt P10415); experiment: BCL-2 competition binding (fluorescence polarization) assay; details: fluorescein-labeled BH3 peptide 15 nM, purified BCL-2 protein 30 nM, 3 hours incubation at room temperature; read-out: BCL2 IC50
Sequence (P10415 whole entry): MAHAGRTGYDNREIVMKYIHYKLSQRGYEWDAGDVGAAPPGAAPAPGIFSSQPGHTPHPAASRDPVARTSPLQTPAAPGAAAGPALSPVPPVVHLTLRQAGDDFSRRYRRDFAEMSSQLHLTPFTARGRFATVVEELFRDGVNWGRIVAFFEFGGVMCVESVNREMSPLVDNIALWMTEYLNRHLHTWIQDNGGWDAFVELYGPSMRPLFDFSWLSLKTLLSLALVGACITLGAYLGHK
experimental-readout: IC50 (nM)
Numbers only, in nM.

{"compound": "CC1(C)CCC(CN2CCN(c3ccc(C(=O)NS(=O)(=O)c4ccc(NCCOCCOCCOCCNc5cccc6c5C(=O)N(C5CCC(=O)NC5=O)C6=O)c([N+](=O)[O-])c4)c(N4CCCOc5nc6[nH]ccc6cc54)c3)CC2)=C(c2ccc(Cl)cc2)C1 (stereo not drawn)", "experimental-readout": "IC50", "obs-value": 1.2}
{"compound": "Cc1ncsc1-c1ccc(CNC(=O)[C@@H]2C[C@@H](O)CN2C(=O)[C@@H](NC(=O)CCOCCOCCOCCOCCOCCNc2ccc(S(=O)(=O)NC(=O)c3ccc(N4CCN(CC5=C(c6ccc(Cl)cc6)CC(C)(C)CC5)CC4)cc3N3CCCOc4nc5[nH]ccc5cc43)cc2[N+](=O)[O-])C(C)(C)C)cc1", "experimental-readout": "IC50", "obs-value": 1.1}
{"compound": "CC1(C)CCC(CN2CCN(c3ccc(C(=O)NS(=O)(=O)c4ccc(NCC5CCOCC5)c([N+](=O)[O-])c4)c(N4CCCOc5ncccc54)c3)CC2)=C(c2ccc(Cl)cc2)C1", "experimental-readout": "IC50", "obs-value": 27}
{"compound": "CC1(C)CCC(c2ccc(Cl)cc2)=C(CN2CCN(c3ccc(C(=O)NS(=O)(=O)c4ccc(NC[C@H]5COCCO5)c([N+](=O)[O-])c4)c(N4CCCOc5nc6[nH]ccc6cc54)c3)CC2)C1", "experimental-readout": "IC50", "obs-value": 0.9}

I'm hoping you can list IC50 for every compound here, please.
1. COC1(C)CCC(c2ccc(Cl)cc2)=C(CN2CCN(c3ccc(C(=O)NS(=O)(=O)c4ccc(NC[C@H]5COCCO5)c([N+](=O)[O-])c4)c(N4CCCOc5nc6[nH]ccc6cc54)c3)CC2)C1 (stereo partly drawn)
2. O=C(NS(=O)(=O)c1ccc(NC[C@H]2COCCO2)c([N+](=O)[O-])c1)c1ccc(N2CCN(CC3=C(c4ccc(Cl)cc4)CCCCC3)CC2)cc1N1CCCOc2nc3[nH]ccc3cc21
3. CC1(C)CCC(CN2CCN(c3ccc(C(=O)NS(=O)(=O)c4ccc(NC[C@H]5COCCO5)c([N+](=O)[O-])c4)c(-n4c5ccncc5c5nc6[nH]ccc6cc54)c3)CC2)=C(c2ccc(Cl)cc2)C1
4. CC1(C)CCC(CN2CCN(c3ccc(C(=O)NS(=O)(=O)c4ccc(NC[C@H]5COCCO5)c([N+](=O)[O-])c4)c(N4CCCOc5nc(N)ccc54)c3)CC2)=C(c2ccc(Cl)cc2)C1
5. Cc1ncsc1-c1ccc(CNC(=O)[C@@H]2C[C@@H](O)CN2C(=O)[C@@H](NC(=O)CCOCCN2CCN(CCNc3ccc(S(=O)(=O)NC(=O)c4ccc(N5CCN(CC6=C(c7ccc(Cl)cc7)CC(C)(C)CC6)CC5)cc4N4CCCOc5nc6[nH]ccc6cc54)cc3[N+](=O)[O-])CC2)C(C)(C)C)cc1

Result:
1: 0.08; 2: 0.6; 3: 0.6; 4: 1.5; 5: 0.3

* * *

target: BCL-2 (Homo sapiens (Human), UniProt P10415); test: BCL-2 competition binding (fluorescence polarization) assay; details: fluorescein-labeled BH3 peptide 15 nM, purified BCL-2 protein 30 nM, 3 hours incubation at room temperature; read-out: BCL2 IC50
experimental-readout: IC50 (nM)
Numbers only, in nM.

Examples from the recorded data:
{"molecule": "CC1(C)CCC(CN2CCN(c3ccc(C(=O)NS(=O)(=O)c4ccc(NCC5CCOCC5)c([N+](=O)[O-])c4)c(N4CCCSc5nc6[nH]ccc6cc54)c3)CC2)=C(c2ccc(Cl)cc2)C1 [Example 27]", "target-or-system": "BCL-2 (Homo sapiens (Human), UniProt P10415)", "experimental-readout": "IC50", "obs-value": 0.3}
{"molecule": "CC1(C)CCC(CN2CCN(c3ccc(C(=O)NS(=O)(=O)c4ccc(NCC5CCOCC5)c([N+](=O)[O-])c4)c(N4CCOc5ccncc54)c3)CC2)=C(c2ccc(Cl)cc2)C1 [Example 34]", "target-or-system": "BCL-2 (Homo sapiens (Human), UniProt P10415)", "experimental-readout": "IC50", "obs-value": 122}
{"molecule": "Cc1ncsc1-c1ccc(CNC(=O)[C@@H]2C[C@@H](C)CN2C(=O)[C@@H](NC(=O)CCOCCOCCOCCNc2ccc(S(=O)(=O)NC(=O)c3cc(N4CCN(CC5=C(c6ccc(Cl)cc6)CC(C)(C)CC5)CC4)ccc3N3CCCOc4nc5[nH]ccc5cc43)cc2[N+](=O)[O-])C(C)(C)C)cc1 [Example 59]", "target-or-system": "BCL-2 (Homo sapiens (Human), UniProt P10415)", "experimental-readout": "IC50", "obs-value": 1.1}

Problem: Tell me the measured IC50 of CC1(C)CCC(CN2CCN(c3ccc(C(=O)NS(=O)(=O)c4ccc(NCC5CCOCC5)c([N+](=O)[O-])c4)c(N4CCOc5ccccc54)c3)CC2)=C(c2ccc(Cl)cc2)C1 [Example 33] , please.
Result: 42.6

* * *

biological target: BCL-2 (Homo sapiens (Human), UniProt P10415); test: BCL-2 competition binding (fluorescence polarization) assay; conditions: read-out: BCL2 IC50
Structures can show the parent of a compound that is named as a salt.
I'd appreciate it if you could supply pIC50 values for the items below.
Numbers only, as −log10 of the molar value.

{"compound": "CC1(C)CCC(CN2CCN(c3ccc(C(=O)NS(=O)(=O)c4ccc(NCC5CCOCC5)c([N+](=O)[O-])c4)c(N4CCCCOc5nc6[nH]ccc6cc54)c3)CC2)=C(c2ccc(Cl)cc2)C1 [Example 69]", "pIC50": 9.22}
{"compound": "CC1(C)CCC(CN2CCN(c3ccc(C(=O)NS(=O)(=O)c4ccc(NC[C@H]5COCCO5)c([N+](=O)[O-])c4)c(N4CCOCc5nc6[nH]ccc6cc54)c3)CC2)=C(c2ccc(Cl)cc2)C1 [Example 41, hydrochloride]", "pIC50": 10.00}
{"compound": "CC1(C)CCC(CN2CCN(c3ccc(C(=O)NS(=O)(=O)c4ccc(NC[C@H]5COCCO5)c([N+](=O)[O-])c4)c(N4CCCOc5nc6[nH]ccc6cc54)c3)CC2)=C(c2ccc(O)cc2)C1 [Example 38]", "pIC50": 7.33}
{"compound": "CC1(C)CCC(CN2CCN(c3ccc(C(=O)NS(=O)(=O)c4ccc(NCCN5CCN(CCOCCOCCNc6cccc7c6C(=O)N(C6CCC(=O)NC6=O)C7=O)CC5)c([N+](=O)[O-])c4)c(N4CCCOc5nc6[nH]ccc6cc54)c3)CC2)=C(c2ccc(Cl)cc2)C1 (centres unmarked) [Example 50]", "pIC50": 9.22}

Attention now shifts to the item below.
Problem: Requested field: pIC50. Item: CC1(C)CC(c2ccc(Cl)cc2)=C(CN2CCN(c3ccc(C(=O)NS(=O)(=O)c4ccc(NC[C@H]5COCCO5)c([N+](=O)[O-])c4)c(N4CCCOc5nc6[nH]ccc6cc54)c3)CC2)CO1 [Example 72]
Result: 11.00
